Target: K55A/F82I
Experiment: SPR; 37 C
valueType: Kd (nM)

>  <binder>
Activin A (ligand) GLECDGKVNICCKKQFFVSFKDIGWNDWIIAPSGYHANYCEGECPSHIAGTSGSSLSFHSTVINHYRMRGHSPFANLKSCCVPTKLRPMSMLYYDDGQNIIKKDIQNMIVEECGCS

>  <valueType>
Kd

>  <readoutUnit>
nM

>  <experimentalResult>
0.047

$$$$
>  <binder>
BMP10 (ligand) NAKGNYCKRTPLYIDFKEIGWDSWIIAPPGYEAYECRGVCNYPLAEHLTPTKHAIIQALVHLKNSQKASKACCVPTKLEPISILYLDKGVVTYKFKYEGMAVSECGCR

>  <valueType>
Kd

>  <readoutUnit>
nM

>  <experimentalResult>
0.007

$$$$
>  <binder>
GDF11 (ligand) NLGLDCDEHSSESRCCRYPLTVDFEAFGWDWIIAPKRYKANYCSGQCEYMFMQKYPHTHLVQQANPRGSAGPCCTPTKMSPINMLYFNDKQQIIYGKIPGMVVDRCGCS

>  <valueType>
Kd

>  <readoutUnit>
nM

>  <experimentalResult>
0.09

$$$$
>  <binder>
BMP9 (ligand) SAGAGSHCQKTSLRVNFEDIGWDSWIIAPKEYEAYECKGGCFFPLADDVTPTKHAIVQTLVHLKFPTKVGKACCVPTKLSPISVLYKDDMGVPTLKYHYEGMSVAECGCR

>  <valueType>
Kd

>  <readoutUnit>
nM

>  <experimentalResult>
0.134

$$$$
